# assay_comment: recombinant barcode read abundance after kanamycin selection (control-corrected) (log10(CPM+1)); higher = more efficient recombination; sequences stand for … in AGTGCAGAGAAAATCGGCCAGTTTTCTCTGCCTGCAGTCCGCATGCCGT…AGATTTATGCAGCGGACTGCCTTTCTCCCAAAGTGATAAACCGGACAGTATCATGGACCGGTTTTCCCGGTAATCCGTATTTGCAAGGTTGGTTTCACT; site = the 11-nt target
So basically: recombinant barcode read abundance (log10) at 0.1 or higher? That is Criterion met. Lower than 0.1? That is Criterion not met.

Solved cases (3 shown):
macromolecule_sequence	assigned_category
ATGCTTGCTTGGGTTCTAACCTGTTGCCA (site ATGCTTGCTTG)	Criterion met
ACGTGGTCTTGGGTTCTAACCTGTTGCTA (site ACGTGGCCTTG)	Criterion met
CTAAATCCTTGGGTTCTAACCTGTTGCAT (site CTAACTCCTAT)	Criterion not met

Textbook exercise: given the entry TCTACCTCTTGGGTTCTAACCTGTTGCCT (site TCTACCTCTAG) , state whether its recombinant barcode read abundance (log10) is greater than or equal to 0.1.
Criterion met

Textbook exercise: given the entry CCTAAGACTTGGGTTCTAACCTGTTGCCG (site CCTAAGACTTG) , state whether its recombinant barcode read abundance (log10) is greater than or equal to 0.1.
Criterion not met

Textbook exercise: given the entry CGCCTCTCTTGGGTTCTAACCTGTTGCCT (site CGCCTCGCTAG) , state whether its recombinant barcode read abundance (log10) is greater than or equal to 0.1.
Criterion met

Textbook exercise: given the entry ATTTCTTCTTGGGTTCTAACCTGTTGCCT (site ATTTCTTCTAG) , state whether its recombinant barcode read abundance (log10) is greater than or equal to 0.1.
Criterion not met

Textbook exercise: given the entry AGCATCACTTGGGTTCTAACCTGTTGCCT (site AACATCACTCG) , state whether its recombinant barcode read abundance (log10) is greater than or equal to 0.1.
Criterion met

Textbook exercise: given the entry AGAGTAGCTTGGGTTCTAACCTGTTGCTA (site AGAGTAGCTTA) , state whether its recombinant barcode read abundance (log10) is greater than or equal to 0.1.
Criterion met

---

# assay_comment: recombinant UMI read abundance after kanamycin selection (control-corrected) (log10(CPM+1)); higher = more efficient recombination; extreme values may be limits of the assay; sequences stand for … in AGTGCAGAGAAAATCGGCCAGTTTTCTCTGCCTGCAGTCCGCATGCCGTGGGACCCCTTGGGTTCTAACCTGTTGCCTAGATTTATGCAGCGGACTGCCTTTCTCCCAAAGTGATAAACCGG…AGGTTGGTTTCACT; site = the 11-nt donor
experimental_readout: recombinant UMI read abundance (log10)
Number only, please.

The following sequences have reported results that may help.
macromolecule_sequence	recombinant UMI read abundance (log10)
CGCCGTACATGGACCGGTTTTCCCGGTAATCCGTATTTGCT (site CCCCGTACTAG)	0.907
ACTAGTGCATGGACCGGTTTTCCCGGTAATCCGTATTTGGG (site ACTAGTGCTGC)	0

Return reported recombinant UMI read abundance (log10); argument: AAGTCGACATGGACCGGTTTTCCCGGTAATCCGTATTTGGG (site AAGTCGACTCC)
0.0303

Return reported recombinant UMI read abundance (log10); argument: GGGGTTCCATGGACCGGTTTTCCCGGTAATCCGTATTTGAA (site GGGGTTCCTTT)
0

Return reported recombinant UMI read abundance (log10); argument: CATTATCCATGGACCGGTTTTCCCGGTAATCCGTATTTGCT (site GATTATCCTAG)
0

Return reported recombinant UMI read abundance (log10); argument: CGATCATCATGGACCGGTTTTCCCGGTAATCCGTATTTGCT (site CGATTATCTAG)
0

Return reported recombinant UMI read abundance (log10); argument: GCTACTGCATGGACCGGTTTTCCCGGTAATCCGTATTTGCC (site GCCACTGCTGG)
0.445
